- TARGET_OF_ASSAY: T1, AFP158/HLA-A*02:01 complex (human)
- T1 construct: flowed over the chip in SPR; also called AFP158 pro
- PROTOCOL_NOTES: SPR, scFv captured, pMHC in flow;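 note: complex injected at several concentrations over crude scFv, association then running-buffer dissociation, KD estimated from kinetic on- and off-rate constants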
MEASURE: Kd (nM)
Report the figure in nM without appending any unit label.

Worked examples follow.
{"BINDER": "HS57A (scFv, AS170036 VL1VH1 scFv mutein) scFv: QSALTQPRSVSGSPGQSVTISCAGTSSDVGSENYVSWYQQHPGKAPKLMIYQVNKRASGVPDRFSGSKSGNTASLTISGLQAEDEADYYCASYRSSDHNIVFGGGTKLTVLGGGGSGGGGSGGGGSEVQLVESGGGLVQPGGSLRLSCAASGFTFSSYAMSWVRQAPGKGLEWVSTINSGTGAPYYADSVKGRFTISRDNSKNTLYLQMNSLRAEDTAVYYCAKNFFDGSWFLGPPAMDYWGQGTLVTVSSHHHHHH", "UNIT_NAME": "nM", "OBSERVED_MEASUREMENT": 210}
{"BINDER": "HP110E (scFv, AS170036 VL1VH1 scFv mutein) scFv: QSALTQPRSVSGSPGQSVTISCAGTSSDVGSENYVSWYQQHPGKAPKLMIYQVNKRASGVPDRFSGSKSGNTASLTISGLQAEDEADYYCASYRSSDHNIVFGGGTKLTVLGGGGSGGGGSGGGGSEVQLVESGGGLVQPGGSLRLSCAASGFTFSSYAMSWVRQAPGKGLEWVSTINSGTGSPYYADSVKGRFTISRDNSKNTLYLQMNSLRAEDTAVYYCAKNFFDGSWFLGPEAMDYWGQGTLVTVSSHHHHHH", "UNIT_NAME": "nM", "OBSERVED_MEASUREMENT": 150}

Let us examine a further case.
Which Kd is listed for HG56N (scFv, AS170036 VL1VH1 scFv mutein; also called AS170036 VL1VH1-VHG56N) scFv: QSALTQPRSVSGSPGQSVTISCAGTSSDVGSENYVSWYQQHPGKAPKLMIYQVNKRASGVPDRFSGSKSGNTASLTISGLQAEDEADYYCASYRSSDHNIVFGGGTKLTVLGGGGSGGGGSGGGGSEVQLVESGGGLVQPGGSLRLSCAASGFTFSSYAMSWVRQAPGKGLEWVSTINSGTNSPYYADSVKGRFTISRDNSKNTLYLQMNSLRAEDTAVYYCAKNFFDGSWFLGPPAMDYWGQGTLVTVSSHHHHHH ?
92
